// provenance: patent US20240165281A1

# Tested on: LNCaP tumor-bearing male CB-17 SCID mice
# experiment: Biodistribution studies 24 h p.i.
# study-conditions: Table 6
Consider the following molecules and their measured In vivo biodistribution (24 h p.i.) blood readings.
value-kind: In vivo biodistribution (24 h p.i.) blood (% iA/g)

>  <molecule>
CC(C)(C)[Si](F)(c1ccc(C(=O)NC[C@@H](NC(=O)[C@@H](CCCNC(N)=O)NC(=O)CC[C@H](C(=O)O)N2CCN(CC(=O)O)CCN(CC(=O)O)CCN(CC(=O)O)CC2)C(=O)NCCCCCC(=O)NCCC[C@@H](NC(=O)CC[C@H](NC(=O)N[C@@H](CCC(=O)O)C(=O)O)C(=O)O)C(=O)O)cc1)C(C)(C)C

>  <unit-descriptor>
% iA/g

>  <value-reported>
0.0007

$$$$
>  <molecule>
CC(C)(C)[Si](F)(c1ccc(C(=O)NC[C@@H](NC(=O)[C@@H](CCCNC(N)=O)NC(=O)CC[C@@H](C(=O)O)N2CCN(CC(=O)O)CCN(CC(=O)O)CCN(CC(=O)O)CC2)C(=O)NCCCCCC(=O)NCCC[C@@H](NC(=O)CC[C@H](NC(=O)N[C@@H](CCC(=O)O)C(=O)O)C(=O)O)C(=O)O)cc1)C(C)(C)C

>  <unit-descriptor>
% iA/g

>  <value-reported>
0.0014

$$$$
>  <molecule>
CC(C)(C)[Si](F)(c1ccc(C(=O)NC[C@@H](NC(=O)CN2CCN(CC(=O)O)CCN(CC(=O)O)CCN(CC(=O)O)CC2)C(=O)N[C@H](CO)C(=O)NCCC(=O)NCCC(=O)NCCC[C@@H](NC(=O)CC[C@H](NC(=O)N[C@@H](CCC(=O)O)C(=O)O)C(=O)O)C(=O)O)cc1)C(C)(C)C

>  <unit-descriptor>
% iA/g

>  <value-reported>
0.0013

$$$$
>  <molecule>
CC(C)(C)[Si](F)(c1ccc(C(=O)NCC(NC(=O)CCC(C(=O)O)N2CCN(CC(=O)O)CCN(CC(=O)O)CCN(CC(=O)O)CC2)C(=O)NC(CN)C(=O)NCCC(=O)NCCC(=O)NCCCC(NC(=O)CCC(NC(=O)NC(CCC(=O)O)C(=O)O)C(=O)O)C(=O)O)cc1)C(C)(C)C (stereo not shown)

>  <unit-descriptor>
% iA/g

>  <value-reported>
0.0042

$$$$
